Hi there, I'd appreciate the recorded apparent KD of MS2 coat protein for every entry that follows.
- Tested on: MS2 coat protein
- Experiment: apparent KD of MS2 coat protein; higher = weaker reporter binding
- Conditions: Eterna round: R107; input ligand: tryptophan 2.4 mM
Your answer should be a number followed by the unit of measure.

{"Monomer Sequence": "UGUAUAUACGGAAGGAGCGUGUAAGAUUAAGAACAUGAGGAUCACCCAUGUUUUAAGGGAACACAGGUAGGUCGCCGUAUAUAUG [11.O]", "Observable": "apparent KD of MS2 coat protein", "Meas Value": "10.3 nM"}
{"Monomer Sequence": "UGUAUGUGAUCUGAUACCAGUGACACGAAAGUGAAUCGCUUGAGGAUCACCCAAGUAAAACACCCUUGGCAGCAGAUCGCAUACU [Full moving switch bubble 1]", "Observable": "apparent KD of MS2 coat protein", "Meas Value": "15.6 nM"}
{"Monomer Sequence": "CCUGGACAUGAGGAUCACCCAUGUGAGGAUACCAGAUAUCCUGAUAUCCCUUGGCAGCCUCAUUACUUCGCAUUACCGAAACUUC [theeternabot_sameState_MS2_Theo_A_35]", "Observable": "apparent KD of MS2 coat protein", "Meas Value": "57.1 nM"}
{"Monomer Sequence": "UCGUGUAUAUCGGAUACCAGUGAGAAGGAUACAUGAGGAUCACCCAUGUGAGUUGAUGUACACCCUUGGCAGCUGUAUAUAUCUA [.plullin]", "Observable": "apparent KD of MS2 coat protein", "Meas Value": "47.9 nM"}
{"Monomer Sequence": "ACACCGAAAGGUGCAUUUACCUUAUCAGAUACCAGACUUUACGUUGUCCCUUGGCAGCUGUAUCACAUGAGGAUCACCCAUGUUG [JR_SSTheophyA_Sub011]", "Observable": "apparent KD of MS2 coat protein", "Meas Value": "16.6 nM"}
{"Monomer Sequence": "UCGCCCGGGUCGGCCGCCACUGAGGUAAUAUGACAUGAGGAUCACCCAUGUUGUCAUGUGGAACAUAGGACCGGGACCCGGGCGA [Exclusion - Tryptophan B Attempt #1 (HarryS)]", "Observable": "apparent KD of MS2 coat protein", "Meas Value": "13.4 nM"}

Please supply apparent KD of MS2 coat protein for each of the following items, keeping them in order.
1. AUAAGUACGUCAGAUACCAGACAGCCAGACUUACAUGAGGAUCACCCAUGUGGAUGGACGGUCCCUUGGCAGCUGGCCGCAAAAG [Isedgeor]
2. GGGCAAGAGGGAAGGAGCGUCGGCUGGGUAACAUGAGGAUCACCCAUGUAGCACAUGGUGUGGCAGGUAGGUCGCCCUCUGCCCU [SS-ArgB9]
3. GGGCCCGGGCGCGAGCCCGGGCCCAUUGAUACCAGUGAUAUAUAGCGCCCUUGGCAGCGAAUCCUAACAUGAGGAUCACCCAUGU [5.I]
4. GUUGGAUUUUCGGCCGCCACUGAGAGAGUCAUGUGAACAUGAGGAUCACCCAUGUAAUAUAUAUACAGGACCGGGAGGGUUGUAA [4.L]
5. UAUCCACAUGAGGAUCACCCAUGUAGGGAAGGAGCGGUGAAUGCACCAGGUAGGUCGCCUUGCUGAGGACAGCCGGUGGAUUCGU [Exclusion - Arginine A (Freestyle 26)]
6. ACAUGAGGAUCACCCAUGUUCCUCAUUGAUACCAGUGAAUUUAGACGCCCUUGGCAGCGAGUUUUUUUAUAAGAAGUUUUUUUUU [6.G]
7. GGACCAUGGCGCGAUACCAGCUUGAGUGUACUGGCCAGGUACAUGAGGAUCACCCAUGUAAGCCCUUGGCAGCGCGCCAUGGUCC [#1 Exclusion - Theophylline B Attempt #24 (HarryS)]

Completion:
216 nM
103 nM
42.7 nM
13.5 nM
16 nM
900 nM
10.7 nM

Please supply apparent KD of MS2 coat protein for each of the following items, keeping them in order.
1. CCUAUGCAGUCGGCCGCCACUGAACAUGAGGAUCACCCAUGUUUUUAUAAAUAUGGUCCUAUAAUCAGGACCGGGACUGUAUAGG [Ex Tryptophan B 9]
2. CACGGAAGAGUGGAUCACCCUCUUAAUAAACGAGGACCGGUACGGCCGCCACUCGAAAACCGUGACCUGUACGAAAAGUGCAGGA
3. GAACAACAUGAGGAUCACCCAUGUCAGGAUACCAGUCGAAAGUCAGACCCUUGGCAGCCUAUCACUCAGCAAAUAGAUAGUACAA [theeternabot_sameState_MS2_Theo_A_12]
4. GGUGGCGUGACGGAUACCAGCCACCGCCGCAAGGCCACAUGAGGAUCACCCAUGUUGGGUGGCCCUUGGCAGCUGUCGUGCGGCG [#1 Same State - Theophylline B Attempt #21 (HarryS)]
5. UCAUGAGGAUCACCCAUGUGGCGUCUUGAUACCAGACGAGAAGUAGUCCCUUGGCAGCAAAUACAUGAGGAUCACCCAUGUAGGA [cccmullin2]
6. AAAAUAAAACGUGCAAAAUCCUAAUGUGAAGGAGCGCACGAAAGUGCAGGUAGGUCGCACAUGAGGAUCACCCAUGUAGCACGAA [MAT - Exclusion Arginine A - Mod of Eli - D1]
7. UUGUAUAUGCGAAGGAGCGGGAAAUAUAUAUAUAUAAUCCUAACAUGAGGAUCACCCAUGUCCCAGGUAGGUCGCGCAUAUAUGG [12.F]
8. GCCUCCAGCCGAAGGAGCGCUAGAAGGUGACAUGAGGAUCACCCAUGUGUGUGAUGUGGCUAGCAGGUAGGUCGCGGAGGAGGUA [Exclusion - Arginine B (Freestyle 21)]

Completion:
["69.2 nM", "127 nM", "16.2 nM", "378 nM", "43 nM", "230 nM", "78.3 nM", "92 nM"]

Please supply apparent KD of MS2 coat protein for each of the following items, keeping them in order.
1. UGGGUACAUGAGGAUCACCCAUGUACUGAAGGAGCGAGAAAUAACUCAGGUAGGUCGCAGACAUGAGGAUCACCCAUGUAAUAAA [Exclusion Arginine A GF 10]
2. UGUAUGGACUGAAGGAGCGCCUCAAAACAUGAGGAUCACCCAUGUGGACAAUAAGUCCUUGGGCAGGUAGGUCGCAGUCCAUACU [ArgBX 6 #StaticStem #MS2Late]

Completion:
18 nM
60.9 nM

---

- System: MS2 coat protein
- Experiment: apparent KD of MS2 coat protein, switch ON state; designed switch direction (-1 OFF switch, 1 ON switch): 1; higher = weaker reporter binding
- Conditions: FMN input: 0 or 200 uM; Eterna round: R93 (includes R88 designs)
Cut-off 60 nM on apparent KD of MS2 coat protein, inclusive. At or above means criterion met; below means criterion not met.

Example cases with answers are listed next.
{"Monomer Sequence": "AAUGAACAUGAGGAUCACCCAUGUUUUAAUAGUUGAGGAUAUAUGGGUGAAAAUAGCACAGUAGAAGGCGAGUGUA [SameState1 Malc#16]", "Target Or System": "MS2 coat protein", "Cat": "criterion met"}
{"Monomer Sequence": "CAUCAUGCGCCUAAGGAUAUGUCUCACAAGACAUGAGGAUCACCCAUGUAGCCAAAAUAAACGAUGCAGAAGGUGGAGCACAUGC [Atrexe]", "Target Or System": "MS2 coat protein", "Cat": "criterion met"}
{"Monomer Sequence": "AGGAGACAUGAGGAUCACCCAUGUAGAAGGAUGGGAGGAUAUACAAAGACGAGAGUCAGAGUAGAAGGCCUAGGGA [salish99-ss1-183(!)]", "Target Or System": "MS2 coat protein", "Cat": "criterion not met"}
{"Monomer Sequence": "AAAAAAGAUCGAGAGGAUAUCCGAGUGGUAACAUGAGGAUCACCCAUGUGAAGAAAGGAACAUGAGGAGAAGGCUCGAUCAAAAA [viburnum 4]", "Target Or System": "MS2 coat protein", "Cat": "criterion not met"}
{"Monomer Sequence": "GAAAAACAUGAGGAUCACCCAUGUGAUAACAUGGGAGGAUAUACGAGGACGAUAGUCAAGGUAGAAGGCCUAAAAG [Garnet 60]", "Target Or System": "MS2 coat protein", "Cat": "criterion met"}

Prompt: Is apparent KD of MS2 coat protein for UGAAGACAUGAGGAUCACCCAUGUGGGAUUAUGGGAGGAUAUACAAAGACGAGAGUCAGAGUAGAAGGCCUAGGAC [salish99-ss1-119(!)] at or above 60 nM?
Completion: criterion not met

Prompt: Is apparent KD of MS2 coat protein for AGAAAACAUGAGGAUCACCCAUGUAGAAACAUGGGAGGAUAUACAAAGACGAAAGUCAAAGUAGAAGGCCUAAAGA [Mat - Same State 1 - Mod - D161] at or above 60 nM?
Completion: criterion met

Prompt: Is apparent KD of MS2 coat protein for AAGAAACAUGAGGAUCACCCAUGUGAUAAUAUGGGAGGAUAUACGAAGACGAAAGUCGAAGUAGAAGGCCUAUGAA [Garnet 42] at or above 60 nM?
Completion: criterion not met

Prompt: Is apparent KD of MS2 coat protein for UUUAAUUAUACGAAGGAUAUCGGUAAUUAGACAUGAGGAUCACCCAUGUUAUAUGGUUAAAUAUUCGAGAAGGUCGAGGGUGAAA [JR_SS002_Sub506] at or above 60 nM?
Completion: criterion not met

Prompt: Is apparent KD of MS2 coat protein for UAUCAUUACACGAAGGAUAUCGAUAAUAGAACAUGAGGAUCACCCAUGUGAAAUAAAAUACAGAACGAGAAGGUCGAGGGUGAAG [JR_SS002_Sub703] at or above 60 nM?
Completion: criterion not met

Prompt: Is apparent KD of MS2 coat protein for AAACUGGAGGACAAGGAUAUGUGCUCUACGACAUGAGGAUCACCCAUGUGAGACGUAGUAGUGAAACAGAAGGUGUCCUAUUGUU [Qulece] at or above 60 nM?
Completion: criterion not met

Prompt: Is apparent KD of MS2 coat protein for AAAAAAAAAACAUAGGAUAUCCGGGCCGGGACAUGAGGAUCACCCAUGUCAAAAAAAAUUGGCCCGGAGAAGGAUGAAAAAAAAAA [SAmeState2-II] at or above 60 nM?
Completion: criterion not met
